Test system: L929 mouse fibroblast cells
Run description: Cytotoxicity, MTT assay
Type: cell-based
Measurement setup: 50 μM peptide, 1 hour
Where no end group is shown, it is not given here.
Overview of recorded viability of treated L929 cells for various substances
Kindly provide the numeric value in % only, without the unit symbol.

RIGSILGALAKGLPTLKSWIKNR-NH2 [A(A1R, I17K)]; 6.3
AIGSILGRLAKGLPTLKSWIKNR-NH2 [A(A8R, I17K)]; 21.1
AIGSILGALAKGLPTLKSWIKNR-NH2 [A(I17K)]; 7.9
RIGSILGRLAKGLPTLKSWIKNR-NH2 [A(A1R, A8R, I17K)]; 31.4

Request: viability of treated L929 cells, test system L929 mouse fibroblast cells, entry AIGSILGALAKGLPTLRSWIKNR-NH2 [A(I17R)] 6.6

* * *

Overview of recorded TI, therapeutic index for various substances
Test system: Gram-negative bacteria
Assay type: cell-based, E. coli, P. aeruginosa, K. pneumoniae
Measurement setup: ratio of MHC to GM, Gram-negative bacteria
Description: The antimicrobial activities of the peptides, indicated by the minimum inhibitory concentrations (MIC), were determined against a range of Gram-negative (Table 3) and Gram-positive bacterial strains (Table 4). The geometric mean of MIC values (GM) from the three strains was calculated to provide an overall evaluation of antimicrobial activity. […]
Where no end group is shown, it is not given here.
I only need the number, thanks.

AIGSILGALAKGLPTLISWIKNR-NH2 [AR-23, reference compound]; 0.2
RIGSILGRLAKGLPTLRSWIKNR-NH2 [A(A1R, A8R, I17R)]; 8

Request: TI, therapeutic index, test system Gram-negative bacteria, entry M(G1R, V8R, I17R): melittin analogue with residues at position 1, 8 and 17 replaced by positively charged residues (RIGAVLKRLTTGLPALRSWIKRKRQQ; not fully specified; ends and bridges not checked; UniProt P01501 44-69, looked up, variant G1R V8R I17R) 10.1

Request: TI, therapeutic index, test system Gram-negative bacteria, entry AIGSILGALAKGLPTLKSWIKNR-NH2 [A(I17K)] 1.59

Request: TI, therapeutic index, test system Gram-negative bacteria, entry RIGVLLARLPKLFSLFKLMGKKV-NH2 [RV-23, reference compound] 1
